Test system: Leukemia L1210
Assay: Activity against Leukemia L1210, oral, increase in life span of mice
Type: in vivo, female mice (BDF1 family)
Settings: Mus musculus, L1210; oral once a day for 5 successive days; daily dosage giving maximum increase of life span; read-out: O.D. (optimum dosage)

compound | experimental_system | ED (maximum ILS) [mg/kg]
CC(CN1CCOCC1)O[C@@H]1O[C@H](CN(C(=O)N(CCCl)N=O)C(C)(C)C)[C@@H](O)[C@H](O)[C@H]1O (stereo partly shown) | Leukemia L1210 | 190
COCCCO[C@H]1O[C@H](CN(CC(C)(C)C)C(=O)N(CCCl)N=O)[C@@H](O)[C@H](O)[C@H]1O | Leukemia L1210 | 200
COCCCO[C@@H]1O[C@H](CN(CC(C)C)C(=O)N(CCCl)N=O)[C@@H](O)[C@H]1O | Leukemia L1210 | 180
COCC(C)N(C(=O)N(CCCl)N=O)[C@H]1[C@@H](O)[C@@H](CO)O[C@H](OCC(C)C)[C@@H]1O (stereo partly shown) | Leukemia L1210 | 240
